Taken from paper PMC11249646.

Target: CIB1 and αIIb interaction (CIB1-GST : F-αIIb peptide) (Homo sapiens, UniProt Q99828)
Construct: made in house; host or cells: BL-21 plus RIL cells (E. coli)
Sequence (Q99828 1-191): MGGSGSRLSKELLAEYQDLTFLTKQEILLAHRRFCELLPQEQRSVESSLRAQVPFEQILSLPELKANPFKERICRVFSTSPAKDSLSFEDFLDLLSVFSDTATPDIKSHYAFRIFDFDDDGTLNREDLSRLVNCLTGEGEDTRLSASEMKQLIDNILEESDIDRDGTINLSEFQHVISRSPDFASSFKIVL
Test: FP assay, 1536-well qHTS format (primary and confirmatory screen)
Type: binding
Conditions: qHTS primary screen hits, Table S2; negative = inhibition
Experimental readout: Efficacy (%)
Numbers only, in %.

1) O=C(O)C(F)(F)F.O=C1Nc2ccccc2/C1=N/NC(=S)Nc1cccnc1 [NCGC00242647-01]	-32
2) C=CCNc1oc(-c2ccc(F)cc2)nc1C#N.O=C(O)C(F)(F)F [NCGC00183411-01]	-27
3) C/C(=C\c1ccc2c(c1)OCO2)C1Nc2cccc3cccc(c23)N1 [NCGC00182904-03]	-34
4) Cl.O=C(O)c1csc(-n2nc(-c3ccc(F)c(F)c3)c(Cc3ccccc3)c2O)n1 [NCGC00356264-02]	-25
5) COC1=C(OC)C(=O)C(CCCCCCCCCCO)=C(C)C1=O [NCGC00160514-02]	-26

For every item in the list below, what is its measured Efficacy (%)?
1. O=C(O)C(F)(F)F.OCc1ccc(-c2ccc3ncnc(NCc4nccs4)c3c2)o1 [NCGC00238383-01]
2. CN1CCN(c2ccc(Nc3nn4c(=O)c5ccccc5nc4s3)cc2)CC1.O=C(O)C(F)(F)F [NCGC00186454-01]
3. CC(=O)NC(c1ccco1)c1cc(F)c2cccnc2c1O (centres unmarked) [NCGC00183702-01]
4. CC(C)=CCC1C(=O)N(c2ccccc2)N(c2ccccc2)C1=O [NCGC00164582-02]

// result
-70
-32
-24
-28
